# PROTOCOL: Toxicity liver stage against HepG2, at 10uM
# Type: cell-based
# Set-up: test concentration 10 uM, cell line HepG2-A16-CD81EGFP
# SETTINGS: human, HepG2-A16-CD81EGFP cells; read-out: INHIBITION
RECORDED_ENDPOINT: cytotoxicity at 10 µM (%)
Give a bare numeral; the unit % is implied.

O=C1CC2(CCN(c3nncs3)C2)CN1c1cccc(F)c1 (configuration not stated)	-3.36

input: Data request, read-out cytotoxicity at 10 µM, for `COCCc1noc(CN2CC(n3nc(C)cc3C)C2)n1`
output: -1.76

input: Data request, read-out cytotoxicity at 10 µM, for `CC(C)(C)CN(CCC#N)C(=O)c1cccc(CC#N)c1`
output: 7.05

input: Data request, read-out cytotoxicity at 10 µM, for `Clc1cccc(N[C@H]2CCCN[C@H]2Cc2ccccc2)c1`
output: 89.4

input: Data request, read-out cytotoxicity at 10 µM, for `CCn1c(Cn2cncn2)nnc1C1CCN(Cc2ccncc2)CC1`
output: 12.3

input: Data request, read-out cytotoxicity at 10 µM, for CC(NC(=O)NCc1cc[nH]n1)c1ccc2c(c1)CCC(=O)N2 (configuration not stated)
output: -9.37

input: Data request, read-out cytotoxicity at 10 µM, for Cc1c[nH]nc1C1CCCCN1C(=O)Cn1cc(Cl)cn1 (configuration not stated)
output: 4.11

input: Data request, read-out cytotoxicity at 10 µM, for O=C(CC1CCCO1)Nc1ccc2c(ccn2CCN2CCOCC2)c1 (configuration not stated)
output: 2.55

input: Data request, read-out cytotoxicity at 10 µM, for `CN1CCN(c2ccc3ccc(C(=O)N4CCCO4)cn23)CC1`
output: 13.4

input: Data request, read-out cytotoxicity at 10 µM, for CC1CN(C)c2ccccc2CN1C(=O)c1cscn1 (configuration not stated)
output: -1.03

input: Data request, read-out cytotoxicity at 10 µM, for Cc1nc(CN(C)C2CCN(CCCOc3ccc(F)cc3)C2)no1 (configuration not stated)
output: -8.27

input: Data request, read-out cytotoxicity at 10 µM, for `CCS(=O)(=O)N(C)CCCNC(=O)c1cc(Cl)cc2cccnc12`
output: 15

====

# PROTOCOL: Toxicity liver stage against HepG2, at 10uM
# Assay type: cell-based
# Design: test concentration 10 uM, cell line HepG2-A16-CD81EGFP
# SETTINGS: human, HepG2-A16-CD81EGFP cells; read-out: INHIBITION
Below is a list of entries, each paired with its recorded cytotoxicity at 10 µM value.
Give a bare numeral; the unit % is implied.

Below: 4 compounds and their reported cytotoxicity at 10 µM.
Cc1cnn(CC2CN(Cc3noc(C4CC4)n3)CCO2)c1 (centres undefined)	-11.4
CC1CCCN(c2ccccc2OCC(=O)NC2CC2)C1 (centres undefined)	10.1
NC(=O)c1ccc(N2CCCCC2)c(NC(=O)c2cc(Br)ccc2F)c1	-12.9
COCCc1noc(CNC2CCCC(C)(C)C2)n1 (centres undefined)	-0.475

input: Data request, read-out cytotoxicity at 10 µM, for `NC(=O)c1cnc(NC2CCN(C(=O)C3CC3)CC2)c(Cl)c1`
output: -14.2

input: Data request, read-out cytotoxicity at 10 µM, for CN1CCCC(c2nc3c([nH]2)CC(C)(C)CNC3=O)C1 (centres undefined)
output: 9.01

input: Data request, read-out cytotoxicity at 10 µM, for `COc1cccc(CC(=O)N2CCc3nc(C(N)=O)sc3CC2)c1`
output: 9.94

input: Data request, read-out cytotoxicity at 10 µM, for Cc1cnc(CN2CCC(N(C)Cc3nnc(C)n3C)C2)cn1 (centres undefined)
output: -10.7

input: Data request, read-out cytotoxicity at 10 µM, for CCN(CC1CCOC1)C(=O)c1nc(-c2ccco2)sc1C (centres undefined)
output: -0.238

input: Data request, read-out cytotoxicity at 10 µM, for `Cc1nc(CN2CCN(S(=O)(=O)N3CCCCC3)CC2)oc1C`
output: 3.64

input: Data request, read-out cytotoxicity at 10 µM, for O=C(NC1CC1)C1CCc2nnc(-c3cccnc3)n21 (centres undefined)
output: 8.96

input: Data request, read-out cytotoxicity at 10 µM, for CN(CCc1ccccn1)C(=O)C(c1cccnc1)N1CCOCC1 (centres undefined)
output: 2.03

input: Data request, read-out cytotoxicity at 10 µM, for `Cc1nnc2ccc(OCCNS(=O)(=O)c3cccs3)nn12`
output: -12.1

====

# PROTOCOL: Toxicity liver stage against HepG2, at 10uM
# Format: cell-based
# Set-up: test concentration 10 uM, cell line HepG2-A16-CD81EGFP
# SETTINGS: human, HepG2-A16-CD81EGFP cells; read-out: INHIBITION
RECORDED_ENDPOINT: cytotoxicity at 10 µM (%)
Give a bare numeral; the unit % is implied.

Below: 5 molecules and their reported cytotoxicity at 10 µM.
CC(=O)N1Cc2cnc(C(C)(C)C)nc2C1	-122
O=C(CC1CN(Cc2ccccc2)CCO1)NC1CCCC1 (configuration not stated)	-0.394
CC(=O)c1cccc(NC(=O)CCn2nc(-c3cccs3)oc2=O)c1	-4.47
Cn1cnnc1C1CCCN(C(=O)c2cnc3ccccc3n2)C1 (configuration not stated)	0.577
C[C@H]1CN2C[C@H](O)CC2CN1Cc1ccc2nccnc2c1 (some centres not stated)	-1.23

// next entry
input: Data request, read-out cytotoxicity at 10 µM, for Cc1nc(C(=O)N2CCCC2c2c(C)nn(C)c2C)cs1 (configuration not stated)
output: -15.8

====

# PROTOCOL: Toxicity liver stage against HepG2, at 10uM
# Assay type: cell-based
# Set-up: test concentration 10 uM, cell line HepG2-A16-CD81EGFP
# SETTINGS: human, HepG2-A16-CD81EGFP cells; read-out: INHIBITION
RECORDED_ENDPOINT: cytotoxicity at 10 µM (%)
Give a bare numeral; the unit % is implied.

Below: 10 compounds and their reported cytotoxicity at 10 µM.
Cc1cc(C)n(CCC(=O)N2CCCC(c3cc(C(N)=O)[nH]n3)C2)n1 (configuration not stated)	-29.3
CC(O)CN1CCC(CNCc2cn(-c3ccccc3)nn2)CC1 (configuration not stated)	3.31
CCc1cnc2c(c1NCc1ccncc1)c(=O)n(C)c(=O)n2C	-12.1
Cc1cc(C2CCC2)nc(N2CCC3(CC2)OCCCC3O)n1 (configuration not stated)	4.28
CCOCc1ccccc1NC(=O)NC1CCN(C(=O)OCC)CC1	-14.5
CC(C)OCCC(=O)Nc1ncn(CC(=O)N2CCCCCC2)n1	-1.61
COc1cc(NC(=O)c2ccccc2F)c(C(=O)N(C)C)cc1OC	-14.8
O=C(c1cnc(-c2cnccn2)s1)N1CCCC1Cn1cccn1 (configuration not stated)	-3.99
CC1CCN(C(=O)CSCCN2CCOCC2)CC1	1.89
Cn1ncc2c(=O)[nH]c(CN(Cc3cccc(F)c3)C3CC3)nc21	-13.1

input: Data request, read-out cytotoxicity at 10 µM, for CN(c1ccncn1)C1CC2(CCN(C(=O)c3cncs3)C2)C1 (configuration not stated)
output: -8.13

input: Data request, read-out cytotoxicity at 10 µM, for `CC/C=C(/C)C(=O)NS(=O)(=O)c1ccc(C#N)cc1C(F)(F)F`
output: 11.8

input: Data request, read-out cytotoxicity at 10 µM, for COCC(C)(O)CNC(=O)c1cc(-c2cc(OC)ccc2OC)nn1C (configuration not stated)
output: -6.42

input: Data request, read-out cytotoxicity at 10 µM, for `Cc1noc([C@]23COC[C@H]2CN(S(=O)(=O)N(C)C)C3)n1`
output: 10.9

input: Data request, read-out cytotoxicity at 10 µM, for `Cc1nnc(C2CCN(C(=O)c3ccsc3)CC2)s1`
output: 10.5

input: Data request, read-out cytotoxicity at 10 µM, for CCN(CCCc1ccccc1)CC1(C)Cc2c(N)nc(N)nc2O1 (configuration not stated)
output: 0.822

input: Data request, read-out cytotoxicity at 10 µM, for CCc1nc2c(NCC3COc4c(cccc4OC)C3)ncnc2o1 (configuration not stated)
output: -0.164

====

Below is a list of entries, each paired with its recorded cytotoxicity at 10 µM value.
# PROTOCOL: Toxicity liver stage against HepG2, at 10uM
# Format: cell-based
# Parameters: test concentration 10 uM, cell line HepG2-A16-CD81EGFP
# SETTINGS: human, HepG2-A16-CD81EGFP cells; read-out: INHIBITION
Give a bare numeral; the unit % is implied.

Below: 5 molecules and their reported cytotoxicity at 10 µM.
COCC(O)CNC(=O)Nc1c(F)cc(F)cc1-c1ccccc1 (stereo unspecified)	-4.17
CCc1nc(CN(C)C(=O)C2CCC(=O)N(CC3CCCCC3)C2)no1 (stereo unspecified)	4.46
Cc1cccn2cc(CN3CCC(N4CCN(C)C4=O)CC3)nc12	7.31
Cc1cc(C)n(CCCN(C)Cc2cn[nH]c2-c2ccc(F)cc2)n1	2.09
Cc1ccc2c(c1)C(=O)NCC1(CCN(C(=O)c3ccccn3)CC1)O2	-25

// next entry
input: Data request, read-out cytotoxicity at 10 µM, for `CN(Cc1noc2c1CCCC2)C(=O)Nc1ccc2oc(=O)n(C)c2c1`
output: -2.36
